Overview of recorded Emax for various molecules
Target Desc: von Hippel-Lindau disease tumor suppressor/Histone-lysine N-methyltransferase EHMT2 (Homo sapiens, UniProt Q96KQ7+P40337)
Sequence (P40337 whole entry partner): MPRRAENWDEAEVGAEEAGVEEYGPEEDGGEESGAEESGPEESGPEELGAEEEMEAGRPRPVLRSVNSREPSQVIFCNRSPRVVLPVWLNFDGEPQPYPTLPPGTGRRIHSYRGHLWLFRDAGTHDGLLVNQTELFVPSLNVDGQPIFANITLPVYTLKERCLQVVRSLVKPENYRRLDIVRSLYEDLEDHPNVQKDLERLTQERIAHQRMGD
Sequence (Q96KQ7 2-1210 limits assumed): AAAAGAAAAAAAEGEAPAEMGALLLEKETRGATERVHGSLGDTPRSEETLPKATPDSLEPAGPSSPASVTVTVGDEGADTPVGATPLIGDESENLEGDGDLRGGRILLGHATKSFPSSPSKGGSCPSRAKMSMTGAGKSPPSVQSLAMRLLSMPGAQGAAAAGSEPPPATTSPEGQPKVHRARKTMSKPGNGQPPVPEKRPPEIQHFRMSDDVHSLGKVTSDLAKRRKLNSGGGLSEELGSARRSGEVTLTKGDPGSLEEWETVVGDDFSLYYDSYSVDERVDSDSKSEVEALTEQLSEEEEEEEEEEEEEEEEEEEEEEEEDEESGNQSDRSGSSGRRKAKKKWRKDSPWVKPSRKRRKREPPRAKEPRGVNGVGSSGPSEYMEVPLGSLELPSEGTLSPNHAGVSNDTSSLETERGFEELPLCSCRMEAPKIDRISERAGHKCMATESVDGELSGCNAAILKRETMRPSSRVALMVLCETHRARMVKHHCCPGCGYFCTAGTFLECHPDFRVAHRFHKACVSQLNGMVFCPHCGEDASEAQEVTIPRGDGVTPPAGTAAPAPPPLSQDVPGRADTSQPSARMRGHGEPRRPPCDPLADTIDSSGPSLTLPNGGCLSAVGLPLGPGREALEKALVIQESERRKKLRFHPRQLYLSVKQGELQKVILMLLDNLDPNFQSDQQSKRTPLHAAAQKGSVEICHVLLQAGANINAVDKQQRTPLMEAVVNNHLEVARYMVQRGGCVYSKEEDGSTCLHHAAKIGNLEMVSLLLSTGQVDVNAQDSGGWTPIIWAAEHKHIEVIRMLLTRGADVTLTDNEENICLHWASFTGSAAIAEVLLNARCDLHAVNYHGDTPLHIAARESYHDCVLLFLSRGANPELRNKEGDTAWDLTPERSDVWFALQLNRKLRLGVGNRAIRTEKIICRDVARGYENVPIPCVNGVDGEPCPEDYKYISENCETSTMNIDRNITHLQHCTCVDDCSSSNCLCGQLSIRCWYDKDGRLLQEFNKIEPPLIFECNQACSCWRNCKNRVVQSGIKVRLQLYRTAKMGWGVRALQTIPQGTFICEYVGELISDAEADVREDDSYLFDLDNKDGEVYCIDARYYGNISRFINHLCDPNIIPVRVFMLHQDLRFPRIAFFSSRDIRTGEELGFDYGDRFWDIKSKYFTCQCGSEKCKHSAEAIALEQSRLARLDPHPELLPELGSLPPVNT
Protocol Text: PROTAC activity at G9a/VHL in human 22Rv1 cells assessed as induction of G9a degradation at 0.3 uM incubated for 24 hrs by Western blot analysis relative to control
Format: cell-based
Readout Kind: Emax (%)

input_smiles=COc1cc2c(NC3CCN(CCCC(=O)NCCCCCCC(=O)N[C@H](C(=O)N4C[C@H](O)C[C@H]4C(=O)NCc4ccc(-c5scnc5C)cc4)C(C)(C)C)CC3)nc(N3CCC(F)(F)CC3)nc2cc1OCCCN1CCCC1 readout_kind=Emax result_qualifier=< val=10
input_smiles=COc1cc2c(NC3CCN(CCCC(=O)NCCCCCCCCCCCC(=O)N[C@H](C(=O)N4C[C@H](O)C[C@H]4C(=O)NCc4ccc(-c5scnc5C)cc4)C(C)(C)C)CC3)nc(N3CCC(F)(F)CC3)nc2cc1OCCCN1CCCC1 readout_kind=Emax result_qualifier== val=73
input_smiles=COc1cc2c(NC3CCN(CCCC(=O)NCCC(=O)N[C@H](C(=O)N4C[C@H](O)C[C@H]4C(=O)NCc4ccc(-c5scnc5C)cc4)C(C)(C)C)CC3)nc(N3CCC(F)(F)CC3)nc2cc1OCCCN1CCCC1 readout_kind=Emax result_qualifier== val=66
input_smiles=COc1cc2c(NC3CCN(CCCC(=O)NCCCCCCCCCC(=O)N[C@H](C(=O)N4C[C@H](O)C[C@H]4C(=O)NCc4ccc(-c5scnc5C)cc4)C(C)(C)C)CC3)nc(N3CCC(F)(F)CC3)nc2cc1OCCCN1CCCC1 readout_kind=Emax result_qualifier== val=67
input_smiles=COc1cc2c(NC3CCN(CCCC(=O)NCCCCCCCCCCC(=O)N[C@H](C(=O)N4C[C@H](O)C[C@H]4C(=O)NCc4ccc(-c5scnc5C)cc4)C(C)(C)C)CC3)nc(N3CCC(F)(F)CC3)nc2cc1OCCCN1CCCC1 readout_kind=Emax result_qualifier== val=79
input_smiles=COc1cc2c(NC3CCN(CCCC(=O)NCCCC(=O)N[C@H](C(=O)N4C[C@H](O)C[C@H]4C(=O)NCc4ccc(-c5scnc5C)cc4)C(C)(C)C)CC3)nc(N3CCC(F)(F)CC3)nc2cc1OCCCN1CCCC1 readout_kind=Emax result_qualifier=< val=8

* * *

Recorded Emax values for a group of compounds are listed next.
Target Desc: von Hippel-Lindau disease tumor suppressor/Histone-lysine N-methyltransferase EHMT1 (Homo sapiens, UniProt Q9H9B1+P40337)
Sequence (P40337 whole entry partner): as the sequence (P40337 whole entry partner) above
Sequence (Q9H9B1 2-1298 limits assumed): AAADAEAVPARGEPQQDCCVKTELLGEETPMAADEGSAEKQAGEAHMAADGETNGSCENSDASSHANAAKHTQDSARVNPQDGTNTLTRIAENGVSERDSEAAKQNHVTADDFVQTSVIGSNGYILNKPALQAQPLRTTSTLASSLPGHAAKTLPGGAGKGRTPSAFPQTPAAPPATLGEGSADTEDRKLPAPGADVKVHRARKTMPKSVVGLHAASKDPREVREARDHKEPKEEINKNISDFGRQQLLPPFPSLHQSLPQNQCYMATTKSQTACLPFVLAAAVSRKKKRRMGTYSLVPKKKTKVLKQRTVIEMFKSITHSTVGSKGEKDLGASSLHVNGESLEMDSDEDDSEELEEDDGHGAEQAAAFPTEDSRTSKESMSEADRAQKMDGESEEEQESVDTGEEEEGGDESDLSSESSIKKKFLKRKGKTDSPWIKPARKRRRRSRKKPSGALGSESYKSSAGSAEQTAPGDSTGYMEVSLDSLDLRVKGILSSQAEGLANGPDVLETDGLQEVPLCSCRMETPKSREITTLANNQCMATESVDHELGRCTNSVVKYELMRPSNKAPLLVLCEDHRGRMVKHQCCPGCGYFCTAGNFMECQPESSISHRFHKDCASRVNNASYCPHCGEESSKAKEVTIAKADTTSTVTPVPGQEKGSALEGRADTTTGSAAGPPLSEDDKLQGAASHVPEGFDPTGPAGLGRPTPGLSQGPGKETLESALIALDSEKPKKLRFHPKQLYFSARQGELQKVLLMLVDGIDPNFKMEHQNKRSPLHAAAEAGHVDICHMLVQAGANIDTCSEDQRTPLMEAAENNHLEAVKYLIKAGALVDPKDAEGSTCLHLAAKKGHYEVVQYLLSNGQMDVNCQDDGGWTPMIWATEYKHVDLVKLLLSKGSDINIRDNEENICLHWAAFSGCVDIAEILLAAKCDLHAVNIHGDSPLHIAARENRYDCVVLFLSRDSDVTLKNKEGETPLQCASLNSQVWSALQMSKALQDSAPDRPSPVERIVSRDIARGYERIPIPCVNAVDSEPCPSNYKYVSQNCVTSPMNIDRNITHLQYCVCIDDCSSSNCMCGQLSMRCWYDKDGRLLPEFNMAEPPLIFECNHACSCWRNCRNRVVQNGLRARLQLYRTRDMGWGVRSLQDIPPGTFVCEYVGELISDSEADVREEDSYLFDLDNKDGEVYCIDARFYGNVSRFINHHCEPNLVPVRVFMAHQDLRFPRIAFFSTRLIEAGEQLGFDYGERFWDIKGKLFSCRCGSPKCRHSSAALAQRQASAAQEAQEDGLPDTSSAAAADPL
Protocol Text: PROTAC activity at GLP/VHL in human 22Rv1 cells assessed as induction of GLP degradation at 0.3 uM incubated for 24 hrs by Western blot analysis relative to control
Type: cell-based
Readout Kind: Emax

input_smiles=COc1cc2c(NC3CCN(CCCC(=O)NCCCC(=O)N[C@H](C(=O)N4C[C@H](O)C[C@H]4C(=O)NCc4ccc(-c5scnc5C)cc4)C(C)(C)C)CC3)nc(N3CCC(F)(F)CC3)nc2cc1OCCCN1CCCC1 val="< 3%"
input_smiles=COc1cc2c(NC3CCN(CCCC(=O)NCCOCCOCCOCCC(=O)N[C@H](C(=O)N4C[C@H](O)C[C@H]4C(=O)NCc4ccc(-c5scnc5C)cc4)C(C)(C)C)CC3)nc(N3CCC(F)(F)CC3)nc2cc1OCCCN1CCCC1 val="< 16%"
input_smiles=COc1cc2c(NC3CCN(CCCC(=O)NCCCCCCC(=O)N[C@H](C(=O)N4C[C@H](O)C[C@H]4C(=O)NCc4ccc(-c5scnc5C)cc4)C(C)(C)C)CC3)nc(N3CCC(F)(F)CC3)nc2cc1OCCCN1CCCC1 val="< 7%"
input_smiles=COc1cc2c(NC3CCN(CCCC(=O)NCCCCCCCCCCC(=O)N[C@H](C(=O)N4C[C@H](O)C[C@H]4C(=O)NCc4ccc(-c5scnc5C)cc4)C(C)(C)C)CC3)nc(N3CCC(F)(F)CC3)nc2cc1OCCCN1CCCC1 val=69%
input_smiles=COc1cc2c(NN3CCN(CCCC(=O)NCCCCCCCCC(=O)N[C@H](C(=O)N4C[C@H](O)C[C@H]4C(=O)NCc4ccc(-c5scnc5C)cc4)C(C)(C)C)CC3)nc(N3CCC(F)(F)CC3)nc2cc1OCCCN1CCCC1 val="< 27%"
input_smiles=COc1cc2c(NC3CCN(CCCC(=O)NCCCCCCCC(=O)N[C@H](C(=O)N4C[C@H](O)C[C@H]4C(=O)NCc4ccc(-c5scnc5C)cc4)C(C)(C)C)CC3)nc(N3CCC(F)(F)CC3)nc2cc1OCCCN1CCCC1 val="< 28%"
input_smiles=COc1cc2c(NC3CCN(CCCC(=O)NCCOCCOCCC(=O)N[C@H](C(=O)N4C[C@H](O)C[C@H]4C(=O)NCc4ccc(-c5scnc5C)cc4)C(C)(C)C)CC3)nc(N3CCC(F)(F)CC3)nc2cc1OCCCN1CCCC1 val="< 7%"
input_smiles=COc1cc2c(NC3CCN(CCCC(=O)NCCOCCC(=O)N[C@H](C(=O)N4C[C@H](O)C[C@H]4C(=O)NCc4ccc(-c5scnc5C)cc4)C(C)(C)C)CC3)nc(N3CCC(F)(F)CC3)nc2cc1OCCCN1CCCC1 val="< 10%"
input_smiles=COc1cc2c(NC3CCN(CCCC(=O)NCCC(=O)N[C@H](C(=O)N4C[C@H](O)C[C@H]4C(=O)NCc4ccc(-c5scnc5C)cc4)C(C)(C)C)CC3)nc(N3CCC(F)(F)CC3)nc2cc1OCCCN1CCCC1 val=54%
input_smiles=COc1cc2c(NC3CCN(CCCC(=O)NCCCCC(=O)N[C@H](C(=O)N4C[C@H](O)C[C@H]4C(=O)NCc4ccc(-c5scnc5C)cc4)C(C)(C)C)CC3)nc(N3CCC(F)(F)CC3)nc2cc1OCCCN1CCCC1 val="< 9%"
